tested on: HCT-15 colon; experiment: NCI-60 one-dose screen, 48 h (100 = growth as untreated, 0 = no growth, -100 = all killed); settings: 10 µM unless noted
Compounds without any hit were thinned out: in the full panel of roughly 83,000, 20% have a hit.
Rule: true for growth not less than 50%, false for anything less.

# compound, label
records = [
    ("CC(=O)OC[C@@]1(C)C2CC[C@]3(C)C(CC=C4C5CC(C)(C)CC[C@]5(C(=O)Nc5ccc(C)cc5)CC[C@]43C)[C@@]2(C)C[C@@H](OC(C)=O)[C@@H]1OC(C)=O (some centres undefined)", "false"),
    ("N#Cc1c(-c2ccc(Cl)cc2)nc2n[nH]c(-c3ccc(Cl)cc3)c2c1-c1ccc(C(F)(F)F)cc1", "false"),
    ("CC1=C(C(=O)OCc2ccccc2)C(c2c(O)cc(O)cc2O)n2c(nc3ccccc32)N1 (centres undefined)", "false"),
    ("CCOP(=O)(OCCCl)c1nc(-c2ccc(C)cc2)oc1NCc1ccccc1 (centres undefined)", "true"),
    ("Cc1sc2c(c1C)C(c1ccc(Cl)cc1)=N[C@@H](CC(=O)NCCCCCNC(=O)COc1ccc(C3CCC(=O)NC3=O)cc1)c1nnc(C)n1-2 (some centres undefined)", "false"),
    ("O=C(CN1C(=O)/C(=C/c2ccccc2Cl)SC1=S)N1CCOCC1", "false"),
    ("C=C1CC[C@@H]2[C@]3(C)COC(c4cn[nH]c4-c4cccc(Br)c4)O[C@@H]3CC[C@@]2(C)[C@@H]1C/C=C1/C(=O)OCC1O (some centres undefined)", "false"),
    ("NS(=O)(=O)c1ccc(-n2cc(-c3cccc(NC(=O)c4cc(Cl)cc(Cl)c4)c3)nn2)cc1", "true"),
    ("O=c1oc2ccc(Br)cc2cc1C1=CSc2nc3sc4c(c3c(=O)n2N=C1)CCCC4", "true"),
    ("CC(C)c1sc(NC(=O)c2cc(NC(=O)c3cc(NC(=O)c4nccn4C)cn3C)cn2C)nc1C(=O)NCCCN(C)C", "true"),
    ("COc1ccc(-c2ccnc(SCc3cc4ccccc4[nH]c3=O)n2)cc1", "false"),
    ("CC1(C)CC[C@]2(C(=O)O)CC[C@]3(C)C(=CCC4[C@@]5(C)C[C@@H](O)[C@@H]6OC(c7ccccc7Br)OC[C@@]6(C)C5CC[C@]43C)C2C1 (some centres undefined)", "false"),
    ("COc1ccc2oc(=O)c(C3(C)NC(=O)c4c(/C=C/C(=O)OC(C)(C)C)cccc4N3)cc2c1 (centres undefined)", "false"),
    ("COc1cc2oc(-c3cccc(C(=O)Nc4ccc(Cl)cc4)c3)cc(=O)c2c(OCCNC(=O)[C@@H](N)CCC(=O)O)c1OC", "true"),
    ("C=C1CC[C@@H]2[C@]3(C)COC(c4cn[nH]c4-c4ccc(C)cc4)O[C@@H]3CC[C@@]2(C)[C@@H]1C/C=C1/C(=O)OCC1O (some centres undefined)", "false"),
    ("CCN1C(=O)/C(=N\\N=C(/C)c2ccc3c(c2)Nc2ccccc2S3)c2cc(Cl)ccc21", "false"),
    ("CCN(CC)c1ccc(/C=N/Nc2nc(-c3ccc(Br)cc3)cs2)c(O)c1", "false"),
    ("Cn1cc(-c2nnc(N)nc2-c2c[nH]c3ccc(Br)cc23)c2cc(Br)cnc21", "false"),
    ("N#Cc1c(-c2ccc(Br)cc2)nc2n[nH]c(-c3ccc(Br)cc3)c2c1-c1ccc(F)cc1", "true"),
    ("COC(=O)/C=C/c1cccc2c1C(=O)NC(C)(c1cc3ccccc3oc1=O)N2 (centres undefined)", "false"),
    ("COc1ccc2[nH]cc(-c3nnc(N)nc3-c3cn(C)c4ncc(Br)cc34)c2c1", "true"),
    ("Cc1ccc(S(=O)(=O)c2nc(S(=O)(=O)c3ccc(C)cc3)c(N3CCC(O)CC3)s2)cc1", "false"),
    ("COc1ccc(-c2nc3cc(C)ccc3n2CC(=O)N=Nc2c(O)[nH]c3ccc(OC)cc23)cc1", "false"),
    ("COc1cc2c(c(OC)c1OC)C(=O)CC(c1cccc(NC(=O)c3cc(NC(=O)[C@H](CO)NC(=O)OC(C)(C)C)ccc3Cl)c1)O2 (some centres undefined)", "false"),
    ("COc1cc(C2CC(c3ccc(S(=O)(=O)NCCNc4nc(Nc5ccc(F)cc5)nc(N(C)C)n4)cc3)=Nc3c(N)nc(N)nc3N2)cc(OC)c1OC (centres undefined)", "true"),
    ("COc1cc2oc(-c3cccc(C(=O)Nc4ccc(Cl)cc4)c3)cc(=O)c2c(OCCNC(=O)[C@H](CO)NC(=O)OC(C)(C)C)c1OC", "false"),
    ("CCCCCCCCc1ccc(S(=O)(=O)Nc2ccc(CC)cc2C(=O)O)cc1", "true"),
    ("Cn1cc(-c2nnc(N)nc2-c2c[nH]c3ccc(F)cc23)c2cccnc21", "false"),
    ("CN(C)c1ccnc(CNCCSC2(c3ccccc3)c3ccccc3C=Cc3ccccc32)c1", "false"),
    ("Cc1ccc(C2CC(c3ccc(S(=O)(=O)NCCNc4nc(Nc5ccc(F)cc5)nc(N(C)C)n4)cc3)=Nc3c(N)nc(N)nc3N2)cc1 (centres undefined)", "false"),
    ("CC(=O)Oc1ccccc1C(=O)[Se]CC(=O)Nc1cccc(C(F)(F)F)c1", "false"),
    ("CCN(CC)C(=O)N/C(N)=N/c1nc2ccccc2s1", "true"),
    ("COc1ccc(C(=O)/C=C/c2cccc3ccccc23)cc1S(N)(=O)=O", "false"),
    ("Cc1ccc2c(N)c(C(=O)Nc3ccc(-c4ccccc4)cc3)sc2n1", "true"),
]
